Measured values drawn from patent US9028856B2 for this set.

In this section we review reported % knock down after values for a set of molecules.
# System: Musca domestica, susceptible strain WHO(N)
# measurement_notes: Contact efficacy against houseflies on filter papers in glass dishes
# Format: in vivo
# run_conditions: 3 h; % a.i. conc. in acetone on filter papers; Table 97
Numeric only. Scale: %

Recorded results for 4 molecules are shown here.
molecule="CC1(C)C(C=C(Br)Br)C1C(=O)OC(C#N)c1cccc(Oc2ccccc2)c1 (centres unmarked) [0.0016% DTM]" result_number=100
molecule="Cc1ccc(O)c(-n2nc3ccccc3n2)c1 [0.5% Compound B]" result_number=0
molecule="CC1(C)[C@H](C(=O)O[C@H](C#N)c2cccc(Oc3ccccc3)c2)[C@@H]1C=C(Br)Br [0.0000128% DTM]" result_number=0
molecule="CC1(C)[C@H](C(=O)O[C@H](C#N)c2cccc(Oc3ccccc3)c2)[C@@H]1C=C(Br)Br [0.000064% DTM]" result_number=0

Let us move to another entry and its % knock down after.
Task: Fill: % knock down after (Musca domestica, susceptible strain WHO(N)) for this molecule CC1(C)[C@H](C(=O)O[C@H](C#N)c2cccc(Oc3ccccc3)c2)[C@@H]1C=C(Br)Br [0.00032% DTM]
Result: 65
